Assignment: determine reported Selectivity ratio KOP/MOP for the given molecules.
# testTarget: KOP receptor (Rattus norvegicus)
# Construct: from tissue; host or cells: Sprague-Dawley rat brain membranes
# Sequence (P34975 whole entry): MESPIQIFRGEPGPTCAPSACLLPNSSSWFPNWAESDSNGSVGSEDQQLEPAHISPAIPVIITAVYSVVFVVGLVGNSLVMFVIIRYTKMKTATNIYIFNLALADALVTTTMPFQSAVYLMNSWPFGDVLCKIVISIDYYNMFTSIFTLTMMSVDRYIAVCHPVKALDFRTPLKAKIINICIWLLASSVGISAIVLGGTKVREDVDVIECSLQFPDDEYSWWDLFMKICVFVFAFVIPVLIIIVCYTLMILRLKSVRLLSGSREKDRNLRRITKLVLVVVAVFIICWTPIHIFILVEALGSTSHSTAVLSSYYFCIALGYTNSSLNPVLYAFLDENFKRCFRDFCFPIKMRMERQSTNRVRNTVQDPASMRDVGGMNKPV
# protocolDetails: Radioligand binding assay, KOP receptor, rat brain membranes ([3H]U69,593)
# conditionSet: Ki ratio, rat brain membranes
One number for each entry.

Please review the following examples before continuing.
COc1ccc2c3c1OC1C(C#N)=CCC4(OC)C(C2)N(C)CCC314 (stereo not shown) ... 26
COc1ccc2c3c1O[C@H]1C(=O)CC[C@@]4(OC)[C@@H](C2)N(C)CC[C@]314 [14-OMC, 14-O-methyloxycodone, reference compound] ... 13
COc1ccc2c(c1OC)C13C=C(C#N)C=CC1(OC)C(C2)N(C)CC3 (stereo not shown) ... 370

Kindly review the next molecule as well.
Return Selectivity ratio KOP/MOP for the following molecule: COc1ccc2c(c1OC)C13C=C(C(N)=O)CCC1(OC)C(C2)N(C)CC3 (stereo not shown)
65

---

Assignment: determine reported EC50 for the given molecules.
# testTarget: UniProt:P35372
# Sequence (P35372 whole entry): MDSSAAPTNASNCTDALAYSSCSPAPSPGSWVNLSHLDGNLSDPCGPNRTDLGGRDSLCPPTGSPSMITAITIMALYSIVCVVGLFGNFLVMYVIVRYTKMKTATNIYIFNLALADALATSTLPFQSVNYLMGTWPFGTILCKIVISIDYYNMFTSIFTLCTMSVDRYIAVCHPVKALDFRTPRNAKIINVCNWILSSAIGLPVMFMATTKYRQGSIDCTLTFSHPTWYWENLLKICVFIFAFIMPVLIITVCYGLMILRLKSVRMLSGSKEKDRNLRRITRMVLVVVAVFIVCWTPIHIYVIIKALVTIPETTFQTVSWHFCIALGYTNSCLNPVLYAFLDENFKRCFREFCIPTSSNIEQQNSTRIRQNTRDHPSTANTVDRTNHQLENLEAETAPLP
# protocolDetails: Calcium mobilization assay in CHOhMOP cells expressing Gαqi5
# Type: cell-based
# Set-up: expressed in transfected cells; host or cells: CHO cells stably co-expressing Gαqi5
One number for each entry, in µM.

Please review the following examples before continuing.
COc1ccc2c(c1OC)C13C=C(C#N)CCC1(O)C(C2)N(C)CC3 (stereo not shown) ... 0.116
COc1ccc2c3c1OC1C(C#N)=CCC4(OC)C(C2)N(C)CCC314 (stereo not shown) ... 0.173

Please go through the list and note EC50 for each molecule.
1. COc1ccc2c(c1O)C13C=C(C#N)CCC1(O)C(C2)N(C)CC3 (stereo not shown)
2. COc1ccc2c3c1O[C@H]1C(=O)CC[C@@]4(OC)[C@@H](C2)N(C)CC[C@]314 [14-OMC, 14-O-methyloxycodone, reference compound]

1. 0.957
2. 0.973

---

# testTarget: UniProt:P35372
# protocolDetails: Calcium mobilization assay in CHOhMOP cells expressing Gαqi5
# Type: cell-based
# Parameters: expressed in transfected cells; host or cells: CHO cells stably co-expressing Gαqi5
# conditionSet: CHOhMOP Gαqi5 cells
readoutLabel: Times greater potency than oxycodone and 14-OMC, calcium mobilization

COc1ccc2c(c1O)C13C=C(C#N)CCC1(O)C(C2)N(C)CC3 (stereo not shown) [compound 1] ... up to 10 times
COc1ccc2c(c1OC)C13C=C(C#N)CCC1(O)C(C2)N(C)CC3 (stereo not shown) [compound 2] ... up to 10 times
COc1ccc2c3c1OC1C(C#N)=CCC4(OC)C(C2)N(C)CCC314 (stereo not shown) [compound 6] ... up to 10 times
COc1ccc2c(c1O)C13C=C(C#N)CCC1(OC)C(C2)N(C)CC3 (stereo not shown) [compound 3] ... up to 10 times

---

# testTarget: DOP receptor (Rattus norvegicus, UniProt P33533)
# Construct: from tissue; host or cells: Sprague-Dawley rat brain membranes
# Sequence (P33533 whole entry): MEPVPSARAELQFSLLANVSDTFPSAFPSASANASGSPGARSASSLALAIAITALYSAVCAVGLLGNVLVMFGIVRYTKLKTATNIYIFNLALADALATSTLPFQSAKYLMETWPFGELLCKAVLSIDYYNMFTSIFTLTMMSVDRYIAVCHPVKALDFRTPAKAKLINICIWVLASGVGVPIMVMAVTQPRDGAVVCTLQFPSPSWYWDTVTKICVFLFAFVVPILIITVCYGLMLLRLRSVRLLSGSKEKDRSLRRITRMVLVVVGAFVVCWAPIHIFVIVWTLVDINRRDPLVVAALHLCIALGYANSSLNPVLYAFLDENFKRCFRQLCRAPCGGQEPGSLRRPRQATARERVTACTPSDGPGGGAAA
# protocolDetails: Radioligand binding assay, DOP receptor, rat brain membranes ([3H][Ile5,6]deltorphin II)
readoutLabel: pKi
One number for each entry, as −log10 of the molar value.

Please review the following examples before continuing.
COc1ccc2c(c1OC)C13C=C(C(N)=O)CCC1(OC)C(C2)N(C)CC3 (stereo not shown) ... 7.54
COc1ccc2c3c1OC1C(C#N)=CCC4(OC)C(C2)N(C)CCC314 (stereo not shown) ... 6.62
COc1ccc2c3c1O[C@H]1C(=O)CC[C@@]4(OC)[C@@H](C2)N(C)CC[C@]314 [14-OMC, 14-O-methyloxycodone, reference compound] ... 6.94

Return pKi for the following compound: COc1ccc2c(c1OC)C13C=C(C#N)C=CC1(OC)C(C2)N(C)CC3 (stereo not shown)
7.52
